All figures here come from the RNAGym collection of RNA variant scans (doi:10.1073/pnas.2313332121).

Consider the following variants; for each one, report its polymerase ribozyme fitness (log ratio).
B1: TPR t1 (parent)
chain: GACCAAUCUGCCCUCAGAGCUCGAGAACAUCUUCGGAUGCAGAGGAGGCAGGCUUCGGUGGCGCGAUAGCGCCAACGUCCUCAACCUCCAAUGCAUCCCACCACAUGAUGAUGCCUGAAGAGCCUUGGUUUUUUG

Variants of: B1
ASSAY_NAME: polymerase ribozyme fitness, log enrichment relative to wild type (log ratio); higher = more active; in vitro selection for triplet polymerase activity

Query string: Which measured polymerase ribozyme fitness (log ratio) value corresponds to `GACCAAUCUGCCCUCAGAGCUCGAGAACGUCUUCGGAUGCAGAGGAGGCAGGCUUCGGUGGCGCGAUAGCGCCAACGUCCUCAACCUCCAAUGCAUCCCACCACUUGAUGAUGCCUGAAGAGCCUUGGUUUUUUG` ?
Result string: -4.23

Query string: Which measured polymerase ribozyme fitness (log ratio) value corresponds to `GACCAAUCUGCCCUCAGAGCCCGAGAUCAUCUUCGGAUGCAGAGGAGGCAGGCUUCGGUGGCGCGAUAGCGCCAACGUCCUCAACCUCCAAUGCAUCCCACCACAUGAUGAUGCCUGAAGAGUCUUGGUUUUUUG` ?
Result string: -4.79

Query string: Which measured polymerase ribozyme fitness (log ratio) value corresponds to `GACCAAUCUGCCCUCAGAGCUCGAGAACAUCUUCGGAUGCAGAGGAGGCAGGCUUCGGUGGCGCGAUUGCGCCAACGUCCUCAACCUCCGAUGCAUCCCAGCACAUGAUGAUACCUCAAGAGCCUUGGUUUUUUG` ?
Result string: -5.75

Query string: Which measured polymerase ribozyme fitness (log ratio) value corresponds to `GACCAAUCUGCCCUCAGAGUUCGAGAACAUCUUCGGAUGCAGAGGAGGCAGGCUUCGGUGGCGCGAUAACGCCAACGUCCUCAACCUCCAAUGCAUCCCACCACAUGAUGAUGCCUGAAGAGCCUUGGUUUUUUG` ?
Result string: -3.34

Query string: Which measured polymerase ribozyme fitness (log ratio) value corresponds to `GACCAAUCUGCCCUCAGAGCUCGAGAACAUCUUCGGAUGGAGAGGAGGCAGGCUGCGGUGGCGCGAUAGCGCCAACGUCCUCAACCUCCAAUGCAUCCCACCACAUGAUGAUGCCUGAAGAGCCUUGGUUUUUUG` ?
Result string: -0.761

Query string: Which measured polymerase ribozyme fitness (log ratio) value corresponds to `GACCAAUCUGCCCUCAGAGCUCGAGAACAUCUUCGGAUGGAGAGGAGGUAGGCUUCGGUGGCGCGAUAACGCCAACGACCUCAACCUCCAAUGCAUCCCACCACAUGAUGAUGCCUGAAGAGCCUUGGUUUUUUG` ?
Result string: -4.96

Query string: Which measured polymerase ribozyme fitness (log ratio) value corresponds to `GACCAAUCUGCCCUCAGAGCUCGAGAACAUCUUCGGAUGCAGAGGAGGCAGGCUUCGGUGGCGCGAUAGCGCCAACGUCCUCAACCUCCAAUGCAUCCCACCACAUGAUGAUGCCUGAAAAGCCUUGGUUUUUUA` ?
Result string: -0.0112

Query string: Which measured polymerase ribozyme fitness (log ratio) value corresponds to `GACCAAUUUGCCCUCAGAGCUCGAGAACAUCUUCGGAUAAAGAGGAGGCAGGCUUCGGUGGUGCGAUAGCGCCAACGUCCUCAACCUCCAAUUCAUCCCACCACAUGAUGCUGCCUGAAGAGCCUUGGUUUUUUG` ?
Result string: -0.367

Query string: Which measured polymerase ribozyme fitness (log ratio) value corresponds to `GACCAAUCUGCCCUCAGAGCUCGAGAACAUCUUCGGAUGCAGAGGAGGCAGGCUUCAGUGGCGCGAUAGCUCCAACGUCCUCAACCUGCAAUGCAUCCCACCACAUGAUGAUGCCUGAAGAGCCUUGGUUUUUUG` ?
Result string: -5.05

Query string: Which measured polymerase ribozyme fitness (log ratio) value corresponds to `GACCAAUCUGCCCUAAGAGCUCGAGAACAUCUUCGGAUGCAGAGGAGGCAGGCUUCGGUGGCGCGAUAGCUCCAACGUCCUCAACCUCCAAUGCAUCCCACCACAUGAUGAUGCCUGAAGAGCCUUGGUUUUUUG` ?
Result string: -2.58

Query string: Which measured polymerase ribozyme fitness (log ratio) value corresponds to `GACCAAUCUGCCCUCAGAGCUCGAGAACAUUUUCGGAUGCAGAGGAGGCAGGCGUCGGCGGCGCGAUAGCGCCAACGUCCUCAACCUCCAAUGCAUCCCACCCCAUGAUGCUGCCUGAAGAGCCUUGGUUUUUUG` ?
Result string: -5.45

Query string: Which measured polymerase ribozyme fitness (log ratio) value corresponds to `GACCAAUCUGCCCUCAGAGCUCGAGAACAUCUUCGGAUGCAGAGUAGGCAGGCUUCGGUGGCGCGAUAGCGCCAACGUCCUCAACCUCCAAUGCAUCCCACCACAUGAUGAUGCCUGAAUAGCCUUGGUUUUUUG` ?
Result string: -0.652

Query string: Which measured polymerase ribozyme fitness (log ratio) value corresponds to `GACCAAUCUACCCUCAGAGCUCGAGAACAUCUUCGGAUGCAGAGUAGGCAGGCUUCGGUGGCGCGAUAGCGCCAACGUCCUCAACCUCCAAUGCAUCCCACCACAUGAUGAUGCCUGAAGAGCCUUGGUUUUUUG` ?
Result string: -1.26

Query string: Which measured polymerase ribozyme fitness (log ratio) value corresponds to `GACCAAUCUGCCCUCAGAGCUCGAGAACAUCUUCGGAUGCAGAGGAGGCAGGCUUCGGUGGCGCGAUAGCGCGAACGUCCUCAACCUCCAAUGAAUCCCACCACAUGAUGAUGCCUGAAGAGCCUUGGUUUUUUG` ?
Result string: -2.58

Query string: Which measured polymerase ribozyme fitness (log ratio) value corresponds to `GACCAAUCUGCCCUCAGAGCUCGAGAACAUCUUCGGAUGCAGAGGAGGCAGGCUUCGGUGGCGCGAUAACGGCAACGUCCUCAACCUCCAAUGCGUCCCACCACAUGAUGAUGCCUGAAGAGCCAUGGUUUUUUG` ?
Result string: -6.14

Query string: Which measured polymerase ribozyme fitness (log ratio) value corresponds to `GACCAAUCUGCCCUCAGAGCUCGAGAACAUCUUCGGAUGCAGAGGAGGCAGACUUUGGUGGCGCGAUAGCGCCAACGUCCUCAACCUCCAAUGCAUCCCACCACAUGAUGAUGCCUGAAGAGCCUUGGUUUUUUG` ?
Result string: -0.699

Query string: Which measured polymerase ribozyme fitness (log ratio) value corresponds to `GACCAAUCUGCCCUCAGAGCUCGAGAACAUCUUCGGUUGCAGAGGAGGCAGGCUUCGGUGGCGCGAUAGCGCCAACGUCCUCAACCUCCAAUGCAUCCCACCACAUGAUGAUGACUGAAGAGCUUUGGUUUUUUG` ?
Result string: -1.39

Query string: Which measured polymerase ribozyme fitness (log ratio) value corresponds to `GACCAAUCUGCCCUCAGAGCUCGAGAACAUCUUCGGAUGCAGAGGAGGCAGGCUUCGGUGGCGCGAUAGCGCCAACGUCCUCAACCUCCAAUGCAUCCCACCAGAUGAUGAUGCCUGAAGAGCCUUGGUUUUUUG` ?
Result string: -6.88

Query string: Which measured polymerase ribozyme fitness (log ratio) value corresponds to `GACCAAUCUGCCCUCAGAGCUCGAGAACAUCUUCGGAUGCAGAGGAGGCAGGCUUCGGUGGCGCGAUAGCGCCAACGUCUUCAACCUCCAAUGCAUCCCACCACAUGAUGAUGACUGAAGAGCCUUGGUUUUUUG` ?
Result string: -1.85

Query string: Which measured polymerase ribozyme fitness (log ratio) value corresponds to `GACCAAUCUGCCCUCAGAGCUCGAGAACUUCUUCGGAUGCAGAGGAGGCAGGCUUCGGUGCCGCGAUAGCGCCAACGUCCUCAACCUCCAAUGCAUCCCACCACAUGAUUAUGCCUGAAGAGCCUUGGUUUUUUG` ?
Result string: -3.06

Query string: Which measured polymerase ribozyme fitness (log ratio) value corresponds to `GACCAAUCUGCCCUCAGAGCUCGAGAACAUCUUAGGAUGCAGAGGAGGCAGGCUUCGGUGACGCGAUAGCGCCAACGUCCUCAACCUCCAAUGCAUCCCACCACAUGAUGAUGCCUGAAGAGCCUUGGUUUUUUG` ?
Result string: -2.98

Query string: Which measured polymerase ribozyme fitness (log ratio) value corresponds to `GACCAAUCUGCCCUCAGAGCUCGAGAACAUCUUAAGAUGCAGAGGAGGCAGGCUUCGGUGGCGCGAUAGCGCCAACGUCCUCAACGUCCAAUGCAUCCCACCACAUGAUGACGCCUGAAGAGCCUUGGUUUUUUG` ?
Result string: -4.41
